Cited source for all entries: ChEMBL document CHEMBL1131171

Target: Cannabinoid receptor 1 (Rattus norvegicus, UniProt P20272)
Sequence (P20272 whole entry): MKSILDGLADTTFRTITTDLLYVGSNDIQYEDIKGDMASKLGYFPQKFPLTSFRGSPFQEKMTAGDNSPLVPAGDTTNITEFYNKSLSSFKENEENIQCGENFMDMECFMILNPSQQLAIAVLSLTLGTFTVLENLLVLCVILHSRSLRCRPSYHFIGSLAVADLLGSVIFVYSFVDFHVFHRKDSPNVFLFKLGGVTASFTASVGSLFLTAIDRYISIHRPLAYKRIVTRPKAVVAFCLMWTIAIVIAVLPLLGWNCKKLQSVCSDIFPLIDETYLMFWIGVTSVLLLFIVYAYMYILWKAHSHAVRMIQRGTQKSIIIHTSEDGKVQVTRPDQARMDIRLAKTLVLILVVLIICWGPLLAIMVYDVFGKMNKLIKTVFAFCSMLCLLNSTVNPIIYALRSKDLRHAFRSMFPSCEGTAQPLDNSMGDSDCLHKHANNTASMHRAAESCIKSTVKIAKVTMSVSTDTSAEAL
# Ki per entry
readout-type: Ki (µM)

structure-notation | measured-on | readout-type | obs-value
O=C(c1c2ccccc2cc2ccccc12)c1cn(CCN2CCOCC2)c2ccccc12 | Cannabinoid receptor 1 (Rattus norvegicus, UniProt P20272) | Ki | 427
COc1ccc(C(=O)c2c(C)n(CCN3CCOCC3)c3cc(OC)ccc23)cc1 | Cannabinoid receptor 1 (Rattus norvegicus, UniProt P20272) | Ki | 871
COc1ccc(C(=O)c2c(C)n(CCN3CCOCC3)c3cc(C)ccc23)cc1 | Cannabinoid receptor 1 (Rattus norvegicus, UniProt P20272) | Ki | 676
Cc1c(C(=O)c2cccc(Cl)c2)c2ccccc2n1CCN1CCOCC1 | Cannabinoid receptor 1 (Rattus norvegicus, UniProt P20272) | Ki | 955
Cc1ccc(C(=O)c2c(C)n(CCN3CCOCC3)c3ccccc23)cc1 | Cannabinoid receptor 1 (Rattus norvegicus, UniProt P20272) | Ki | 708
COc1ccc(C(=O)c2c(C)n(CCN3CCOCC3)c3c(C)cccc23)cc1 | Cannabinoid receptor 1 (Rattus norvegicus, UniProt P20272) | Ki | 832
